Source listed as the supplement of paper PMC7057948.

In this section, each of the compounds is paired with its reported relative induction of RFP reporter.
System: HpdR/P_H16_RS18295 3-hydroxypropanoate biosensor (pEH010)
TEST DESCRIPTION: relative induction of RFP reporter vs primary effector (background-corrected); higher = stronger activation of the biosensor
DETAILS: inducer concentration 5 mM; 6 h; Cupriavidus necator H16; minimal medium + 0.4% gluconate
Supply the numeric figure in %, leaving out any unit text.

Answered examples (6):
- O=C(O)C(O)c1ccccc1 (configuration not stated): 0.0419
- Cn1c(=O)c2c(ncn2C)n(C)c1=O: 0.0271
- Oc1ccc(O)cc1 [hydroquinone]: 1.65
- O=C(O)C(O)C(=O)O: 0.0561
- O=C(O)CC(=O)C(=O)O [oxaloacetate]: 0.0505
- NCC(N)C(=O)O (configuration not stated) [2,3-diaminopropanoate]: 0.349

Field relative induction of RFP reporter (HpdR/P_H16_RS18295 3-hydroxypropanoate biosensor (pEH010)), entry `O=c1[nH]cnc2nc[nH]c12` : 0.126

Field relative induction of RFP reporter (HpdR/P_H16_RS18295 3-hydroxypropanoate biosensor (pEH010)), entry C[C@H](O)C(=O)O [L-lactate] : 0.0155

Field relative induction of RFP reporter (HpdR/P_H16_RS18295 3-hydroxypropanoate biosensor (pEH010)), entry O=C(O)c1c(O)cccc1O [2,6-dihydroxybenzoate] : 0.277

Field relative induction of RFP reporter (HpdR/P_H16_RS18295 3-hydroxypropanoate biosensor (pEH010)), entry `NC(=O)CC[C@H](N)C(=O)O` : -0.13

Field relative induction of RFP reporter (HpdR/P_H16_RS18295 3-hydroxypropanoate biosensor (pEH010)), entry O=C(O)/C=C/C(=O)O [fumarate] : 0.112

Field relative induction of RFP reporter (HpdR/P_H16_RS18295 3-hydroxypropanoate biosensor (pEH010)), entry N[C@@H](CC(=O)O)C(=O)O [L-aspartate] : -0.138

Field relative induction of RFP reporter (HpdR/P_H16_RS18295 3-hydroxypropanoate biosensor (pEH010)), entry NCC(O)C(=O)O (configuration not stated) [3-amino-2-hydroxypropanoate] : -0.132

Field relative induction of RFP reporter (HpdR/P_H16_RS18295 3-hydroxypropanoate biosensor (pEH010)), entry O=C(O)c1ccc(O)cc1 [4-hydroxybenzoate] : 0.357

Field relative induction of RFP reporter (HpdR/P_H16_RS18295 3-hydroxypropanoate biosensor (pEH010)), entry `O=c1cc[nH]c(=O)[nH]1` : 0.292

Field relative induction of RFP reporter (HpdR/P_H16_RS18295 3-hydroxypropanoate biosensor (pEH010)), entry O=C(O)C[C@H](O)C(=O)O [L-malate] : 0.127

Field relative induction of RFP reporter (HpdR/P_H16_RS18295 3-hydroxypropanoate biosensor (pEH010)), entry O=C(O)C1CCCC1 [cyclopentane-1-carboxylate] : -0.057

---

In this section, each of the compounds is paired with its reported relative induction of RFP reporter.
System: XdhR/P_H16_RS05055 xanthine biosensor (pEH154)
TEST DESCRIPTION: relative induction of RFP reporter vs primary effector (background-corrected); higher = stronger activation of the biosensor
DETAILS: inducer concentration 5 mM; 6 h; Cupriavidus necator H16; minimal medium + 0.4% gluconate
Supply the numeric figure in %, leaving out any unit text.

Answered examples (6):
* O=C(O)c1c(O)cccc1O [2,6-dihydroxybenzoate] | 0.89
* O=C(O)C(O)c1ccccc1 (configuration not stated) | -0.0998
* NCC(O)C(=O)O (configuration not stated) [3-amino-2-hydroxypropanoate] | -0.317
* O=C(O)c1ccc(O)cc1 [4-hydroxybenzoate] | -0.191
* O=C(O)c1cc(=O)c2ccccc2[nH]1 [kynurenate] | -0.96
* NCC(N)C(=O)O (configuration not stated) [2,3-diaminopropanoate] | -0.1

The compound listed as O=C(O)CC(=O)C(=O)O [oxaloacetate] has a reported relative induction of RFP reporter of -0.199

The compound listed as O=CC(=O)O [glyoxylate] has a reported relative induction of RFP reporter of -0.199

The compound listed as C[C@H](O)C(=O)O [L-lactate] has a reported relative induction of RFP reporter of -0.526

---

Test system: heterologous inducible system pEH002 (rhamnose/acrylate/cumate/itaconate set)
TEST DESCRIPTION: relative induction of RFP reporter vs primary effector (background-corrected); higher = stronger activation of the biosensor
DETAILS: inducer concentration 5 mM; 6 h; Cupriavidus necator H16; minimal medium + 0.4% gluconate
In this section, each of the molecules is paired with its reported relative induction of RFP reporter.
Supply the numeric figure in %, leaving out any unit text.

Answered examples (5):
* CCC(=O)O [propanoate] | -0.00545
* O=c1cc[nH]c(=O)[nH]1 [uracil] | 0.0212
* C[C@H](N)C(=O)O [L-alanine] | -0.00357
* CC(=O)CCC(=O)O [levulinic acid] | 0.0157
* NC(=O)CC[C@H](N)C(=O)O [L-glutamine] | 0.00684

The molecule listed as O=C(O)c1ccc(O)cc1 [4-hydroxybenzoate] has a reported relative induction of RFP reporter of 0.0183

The molecule listed as O=C(O)C1=CCCCC1 [cyclohexene-1-carboxylate] has a reported relative induction of RFP reporter of 0.0231

The molecule listed as NCC(O)C(=O)O (stereo not drawn) [3-amino-2-hydroxypropanoate] has a reported relative induction of RFP reporter of 0.0153

The molecule listed as NC(C(=O)O)c1ccccc1 (racemic) [D,L-2-phenylglycine] has a reported relative induction of RFP reporter of 0.012

The molecule listed as N[C@@H](CC(=O)O)C(=O)O [L-aspartate] has a reported relative induction of RFP reporter of 0.02

---

System: heterologous inducible system pEH002 (rhamnose/acrylate/cumate/itaconate set)
TEST DESCRIPTION: relative induction of RFP reporter vs primary effector (background-corrected); higher = stronger activation of the biosensor
DETAILS: inducer concentration 5 mM; 6 h; Cupriavidus necator H16; minimal medium + 0.4% gluconate
In this section, each of the compounds is paired with its reported relative induction of RFP reporter.
Record the result as a number with its unit.

The compound listed as Oc1ccc(O)cc1 [hydroquinone] has a reported relative induction of RFP reporter of 0.0465%

---

In this section, each of the compounds is paired with its reported relative induction of RFP reporter.
System: PcaQ/P_H16_RS30145 3,4-dihydroxybenzoate biosensor (pEH161)
TEST DESCRIPTION: relative induction of RFP reporter vs primary effector; higher = stronger activation
DETAILS: inducer concentration 5 mM; 6 h; Cupriavidus necator H16; minimal medium + 0.4% gluconate
Record the result as a number with its unit.

- N[C@@H](Cc1ccc(O)cc1)C(=O)O: 0.392%

The compound listed as `NCCC(=O)O` has a reported relative induction of RFP reporter of -0.208%

The compound listed as O=C(O)C1CCCCC1 [cyclohexane-1-carboxylate] has a reported relative induction of RFP reporter of -0.211%

The compound listed as O=C(O)CCO [3-hydroxypropanoate] has a reported relative induction of RFP reporter of -0.224%

The compound listed as `O=C(O)c1ccccc1` has a reported relative induction of RFP reporter of 0.00574%

The compound listed as OC1OC[C@H](O)[C@H](O)[C@H]1O (mixture of isomers) has a reported relative induction of RFP reporter of -0.0772%

The compound listed as O=CO [formate] has a reported relative induction of RFP reporter of -0.0432%

The compound listed as O=C(O)C(O)C(O)C(=O)O (stereo unspecified) [tartrate] has a reported relative induction of RFP reporter of 0.0285%

The compound listed as O=C(O)CS(=O)(=O)O [sulfonatoacetate] has a reported relative induction of RFP reporter of -0.165%

The compound listed as O=C(O)C(=O)c1ccccc1 [phenylglyoxylate] has a reported relative induction of RFP reporter of -0.114%

The compound listed as C=CC(=O)O [acrylate] has a reported relative induction of RFP reporter of -0.175%

---

Test system: SauR/P_H16_RS13695 sulfonatoacetate biosensor (pEH157)
TEST DESCRIPTION: relative induction of RFP reporter vs primary effector (background-corrected); higher = stronger activation of the biosensor
DETAILS: inducer concentration 5 mM; 6 h; Cupriavidus necator H16; minimal medium + 0.4% gluconate
In this section, each of the compounds is paired with its reported relative induction of RFP reporter.
Supply the numeric figure in %, leaving out any unit text.

Answered examples (5):
• Oc1ccc(O)cc1 [hydroquinone] = 0.207
• OC[C@@H](O)[C@@H](O)[C@H](O)[C@H](O)CO = 0.0255
• NC(C(=O)O)c1ccccc1 (racemic) = -0.00851
• O=C(O)CNC(=O)c1ccccc1 = -0.018
• O=C(O)[C@@H](O)[C@@H](O)[C@H](O)[C@@H](O)C(=O)O [glucarate] = -0.0162

The compound listed as O=C(O)C1=CCCCC1 [cyclohexene-1-carboxylate] has a reported relative induction of RFP reporter of 0.0222

The compound listed as C[C@H](O)C(=O)O [L-lactate] has a reported relative induction of RFP reporter of -0.0258

The compound listed as `NCCc1ccc(O)c(O)c1` has a reported relative induction of RFP reporter of 0.18

The compound listed as `NC(=O)CC[C@H](N)C(=O)O` has a reported relative induction of RFP reporter of 0.0183

The compound listed as O=C(O)C1=C[C@@H](O)[C@@H](O)[C@H](O)C1 [shikimate] has a reported relative induction of RFP reporter of 0.0792

The compound listed as `O=c1cc[nH]c(=O)[nH]1` has a reported relative induction of RFP reporter of -0.0169
